measured.on: T1, Recombinant Human DLL4 (delta-like protein 4) (human, UniProt Q9NR61 27-524)
T1 construct: Bought recombinant human DLL4 (R&D Systems Cat#1506-D4/CF); also called rHuman DLL4
assay.comment: ECL (MSD) binding assay, immobilised DLL4, 10 nM Fab;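 note: fab binding read as electrochemiluminescence via a TAG-labelled detection antibody, 1 h incubations at 20 °C, antigen signal compared with each well's blank, ratio of at least 4 scored as binder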
measurement.name: ECL Signal [10 nM Fab]

- Fab VH5-51_IGHD5-18*01>3_IGHJ4*01 G100K/G104T & V3-4_IGLJ1*01 V91N (Fab, V domains shown, Fab; expressed with CH1 (His and Flag tags) and lambda CL from the expression plasmids; also called H:KT & V91N) VH: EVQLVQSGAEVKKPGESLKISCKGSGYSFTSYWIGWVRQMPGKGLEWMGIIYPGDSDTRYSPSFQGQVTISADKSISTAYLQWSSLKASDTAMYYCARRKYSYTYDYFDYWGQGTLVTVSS VL: QTVVTQEPSFSVSPGGTVTLTCGLSSGSVSTSYYPSWYQQTPGQAPRTLIYSTNTRSSGVPDRFSGSILGNKAALTITGAQADDESDYYCNLYMGSGISYVFGTGTKVTVL: 46700
- Fab VH5-51_IGHD5-18*01>3_IGHJ4*01 G100K/G104T & V3-4_IGLJ1*01 M94L (Fab, V domains shown, Fab; expressed with CH1 (His and Flag tags) and lambda CL from the expression plasmids; also called H:KT & M94L) VH: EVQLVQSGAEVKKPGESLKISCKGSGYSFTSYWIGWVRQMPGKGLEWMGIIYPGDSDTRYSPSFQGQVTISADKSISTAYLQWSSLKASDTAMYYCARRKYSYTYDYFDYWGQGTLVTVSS VL: QTVVTQEPSFSVSPGGTVTLTCGLSSGSVSTSYYPSWYQQTPGQAPRTLIYSTNTRSSGVPDRFSGSILGNKAALTITGAQADDESDYYCVLYLGSGISYVFGTGTKVTVL: 46800
- Fab VH5-51_IGHD5-18*01>3_IGHJ4*01 G100K/G104T & V3-4_IGLJ1*01 M94D (Fab, V domains shown, Fab; expressed with CH1 (His and Flag tags) and lambda CL from the expression plasmids; also called H:KT & M94D) VH: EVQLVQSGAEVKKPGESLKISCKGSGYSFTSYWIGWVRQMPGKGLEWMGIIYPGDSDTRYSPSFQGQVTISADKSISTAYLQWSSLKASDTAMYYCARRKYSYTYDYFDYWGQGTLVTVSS VL: QTVVTQEPSFSVSPGGTVTLTCGLSSGSVSTSYYPSWYQQTPGQAPRTLIYSTNTRSSGVPDRFSGSILGNKAALTITGAQADDESDYYCVLYDGSGISYVFGTGTKVTVL: 52700
